# Experimental System: IRAK4 (Homo sapiens, UniProt Q9NWZ3)
# Construct: endogenous in cells; host or cells: THP-1 cells
# Sequence (Q9NWZ3 whole entry): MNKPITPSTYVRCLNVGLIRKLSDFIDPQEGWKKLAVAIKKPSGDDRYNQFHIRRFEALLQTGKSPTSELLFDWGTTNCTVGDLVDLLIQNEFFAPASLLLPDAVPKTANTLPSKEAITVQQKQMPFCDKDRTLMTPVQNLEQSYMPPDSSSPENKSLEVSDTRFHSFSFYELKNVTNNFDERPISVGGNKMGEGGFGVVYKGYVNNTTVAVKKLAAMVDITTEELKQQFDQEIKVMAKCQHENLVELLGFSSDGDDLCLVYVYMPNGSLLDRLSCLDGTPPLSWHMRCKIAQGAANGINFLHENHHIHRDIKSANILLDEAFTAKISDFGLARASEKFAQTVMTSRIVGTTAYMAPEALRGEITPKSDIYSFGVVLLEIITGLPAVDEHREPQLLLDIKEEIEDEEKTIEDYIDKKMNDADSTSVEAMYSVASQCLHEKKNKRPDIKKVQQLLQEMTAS
# Test: LVL THP1 HTRF (THP1 Homogeneous Time Resolved Fluorescence)
# Format: cell-based
# Conditions: THP1 cells, 18 h incubation with compound, read-out: LVL THP1 HTRF EC50
Measure: DC50 (µM)

Solved cases (3 shown):
Compound: C[C@H](C#N)Nc1cc(-n2ncc3cc(C#N)c(N)nc32)ncc1C(=O)N[C@H]1CC[C@H](CCN2CCN(c3ccc(C4CCC(=O)NC4=O)cc3)C(C(F)(F)F)C2)CC1 (some centres unmarked) [P-186]
DC50, µM: 0.029

Compound: C[C@H](C#N)Nc1cc(-n2ncc3cc(C#N)cnc32)ncc1-n1cc([C@H]2CC[C@H](CCN3CC[C@H]4[C@@H]3CCN4c3ccc(C4CCC(=O)NC4=O)cc3)CC2)nn1 (single isomer, unassigned) [P-327]
DC50, µM: 0.0028

Compound: N#Cc1cc2cnn(-c3cc(NC4CC4)c(-n4cc([C@H]5CC[C@H](CCN6CCN(c7ccc(C8CCC(=O)NC8=O)cc7)CC6)CC5)nn4)cn3)c2nc1N (some centres unmarked)
DC50, µM: 0.008

[a] C[C@H](C#N)Nc1cc(-n2ncc3cc(C#N)cnc32)ncc1-n1cc([C@H]2CC[C@H](CCN3CCN(c4ccc([C@@]5(C)CCC(=O)NC5=O)nc4)[C@@H](C)C3)CC2)nn1 (single isomer, unassigned) [P-289]
[b] C[C@H](C#N)Nc1cc(-n2ncc3cc(C#N)cnc32)ncc1C(=O)N[C@H]1CC[C@H](CCN2CCN(c3ccc(C4CCC(=O)NC4=O)cc3)[C@H](C)C2)CC1 (some centres unmarked)
Request: Problem: Given the entries a and b , determine which has the lower reported DC50. // return label of chosen record
Response: a

* * *

# Experimental System: IRAK4 (Homo sapiens)
# Construct: endogenous in cells
# Test: ALE THP1 HTRF (Advanced Lipoxidation End Product THP1 Homogeneous Time Resolved Fluorescence)
# Conditions: THP1 cells
pEC50: −log10 of the molar value.
Measure: pEC50

Example entries and their recorded answers appear below.
Molecule: N#Cc1cnc2c(cnn2-c2cc(NC3CCOCC3)c(C(=O)NC3CCC(CCN4CCN(c5ccc(C6CCC(=O)NC6=O)cc5)CC4)CC3)cn2)c1 (centres unmarked)
pEC50: 8.10

Molecule: N#Cc1cnc2c(ccn2-c2cc(NC3CCCC3)c(C(=O)NC3CCC(CCN4CCN(c5ccc(C6CCC(=O)NC6=O)cc5)CC4)CC3)cn2)c1 (centres unmarked)
pEC50: 7.00

[I] C[C@H](C#N)Nc1cc(-c2ccc3cc(C#N)cnn23)ncc1C(=O)N[C@H]1CC[C@H](CCN2CCN(c3ccc(C4CCC(=O)NC4=O)cc3)CC2)CC1 (some centres unmarked)
[II] C[C@@H]1CN(CC[C@H]2CC[C@H](NC(=O)c3cnc(-n4ncc5cc(C#N)cnc54)cc3NC3CC3)CC2)CCN1c1ccc(C2CCC(=O)NC2=O)cc1 (some centres unmarked)
Request: Rank I against II by their pEC50 values and give the higher one. Answer format: the label of the selected item.
Response: I
(I: 8.40, II: 7.82)

* * *

# Experimental System: IRAK4 (Homo sapiens, UniProt Q9NWZ3)
# Construct: endogenous in cells; host or cells: THP-1 cells
# Test: LVL THP1 HTRF (THP1 Homogeneous Time Resolved Fluorescence)
# Format: cell-based
# Conditions: THP1 cells, 18 h incubation with compound
Measure: LVL THP1 HTRF YMIN (%)

[a] C[C@H](C#N)Nc1cc(-n2ncc3cc(C#N)cnc32)ncc1-n1cc([C@H]2CC[C@H](CCN3CCN(c4ccc(N5CCC(=O)NC5=O)nn4)CC3)CC2)nn1
[b] C[C@H](C#N)Nc1cc(-n2ncc3cc(C#N)cnc32)ncc1-n1cc(C2CCC(CCN3CCC(c4ccc([C@@]5(C)CCC(=O)NC5=O)cc4)CC3)CC2)nn1 (stereo partly drawn)
[c] C[C@H](C#N)Nc1cc(-n2ncc3cc(C#N)cnc32)ncc1-n1cc([C@H]2CC[C@H](CCN3CC4(CC(c5ccc(N6CCC(=O)NC6=O)c(Cl)c5)C4)C3)CC2)nn1
Request: Place the item with the largest LVL THP1 HTRF YMIN first, then continue in falling order, using the list above. Returns: the labels listed in the requested order.
Response: a, b, c

All figures here come from patent US20240109881A1.
